Molecular target: F130G mutant EAG1 channels (Mus musculus, UniProt Q60603, F130G)
Assay: TEVC recording, imipramine inhibition, F130G mutant
Conditions: F130G mutant EAG1 channel, +50 mV
Experimental: The cDNA encoding wild-type (WT) mouse EAG1 channels in pGH19 vector was kindly provided by G. Robertson (University of Wisconsin-Madison, Madison, WI). […] For EAG1 current recordings, oocytes were placed into a handmade chamber containing a bath solution for the current recording. The currents were recorded using a TEVC technique with OC-725C amplifier (Warner Instruments) and pClamp11 software (Molecular Devices). […]
observation-type: pIC50
pIC50 here is simply -log10 of the concentration when that concentration is written in mol/L.

INPUT: pIC50 lookup needed for `CN(C)CCCN1c2ccccc2CCc2ccccc21` , thanks.
OUTPUT: 4.28

----------
target: Y71R mutant EAG1 channels (Mus musculus, UniProt Q60603, Y71R); assay: TEVC recording, imipramine inhibition, Y71R mutant; conditions: Y71R mutant EAG1 channel, +50 mV
observation-type: pIC50
pIC50 here is simply -log10 of the concentration when that concentration is written in mol/L.

INPUT: pIC50 lookup needed for CN(C)CCCN1c2ccccc2CCc2ccccc21 [imipramine] , thanks.
OUTPUT: 4.36

----------
Biological target: V80G mutant EAG1 channels (Mus musculus, UniProt Q60603, V80G)
Sequence (Q60603 1-989 V80G): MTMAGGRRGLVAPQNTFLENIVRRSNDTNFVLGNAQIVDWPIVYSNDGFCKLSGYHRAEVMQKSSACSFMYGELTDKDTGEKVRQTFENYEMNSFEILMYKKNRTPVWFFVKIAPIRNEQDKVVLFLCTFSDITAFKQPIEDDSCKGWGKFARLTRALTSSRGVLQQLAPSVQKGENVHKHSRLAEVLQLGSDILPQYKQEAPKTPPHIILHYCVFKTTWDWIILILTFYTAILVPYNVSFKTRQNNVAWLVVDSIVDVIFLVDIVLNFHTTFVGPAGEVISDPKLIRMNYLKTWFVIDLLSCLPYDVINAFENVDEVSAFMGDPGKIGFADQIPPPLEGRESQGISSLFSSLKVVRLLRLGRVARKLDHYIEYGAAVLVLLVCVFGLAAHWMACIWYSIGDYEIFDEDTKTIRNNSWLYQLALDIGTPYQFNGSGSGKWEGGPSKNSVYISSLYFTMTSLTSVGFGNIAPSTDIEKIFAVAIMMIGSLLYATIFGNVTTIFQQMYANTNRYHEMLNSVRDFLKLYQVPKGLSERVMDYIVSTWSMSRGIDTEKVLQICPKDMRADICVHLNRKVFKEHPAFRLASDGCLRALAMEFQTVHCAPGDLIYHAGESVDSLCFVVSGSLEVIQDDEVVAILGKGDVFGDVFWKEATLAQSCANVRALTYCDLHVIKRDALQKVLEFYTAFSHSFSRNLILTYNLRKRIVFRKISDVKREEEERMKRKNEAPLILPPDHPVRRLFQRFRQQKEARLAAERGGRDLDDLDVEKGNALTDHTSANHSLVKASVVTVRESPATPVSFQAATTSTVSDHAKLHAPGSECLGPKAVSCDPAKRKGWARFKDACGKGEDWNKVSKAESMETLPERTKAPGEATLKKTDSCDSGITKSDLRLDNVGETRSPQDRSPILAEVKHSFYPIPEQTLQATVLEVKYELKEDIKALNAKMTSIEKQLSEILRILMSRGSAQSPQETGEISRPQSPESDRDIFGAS
Assay: TEVC recording, imipramine inhibition, V80G mutant
Conditions: V80G mutant EAG1 channel, +50 mV
observation-type: pIC50
pIC50 here is simply -log10 of the concentration when that concentration is written in mol/L.

INPUT: pIC50 lookup needed for `CN(C)CCCN1c2ccccc2CCc2ccccc21` , thanks.
OUTPUT: 4.24
